Field: TGI. Provide a value for each of the compounds that follow.
Test system: SK-OV-3 ovarian
Test: NCI tumour cell line growth inhibition, 48 h

CCNc1nc2ccccc2nc1NCC; > 100 µM
C/C(=N\NC(=S)N/N=C(\C)c1ccccn1)c1ccccn1; > 100 µM

Task: # return recorded TGI for entry COc1ncn(C2C=C(CO)C(O)C2O)c(=O)n1 (stereo not drawn)
Output: > 100 µM

----------
Tested on: EKVX NSCLC
Test: NCI tumour cell line growth inhibition, 48 h
ENDPOINT: GI50

Here are 2 molecules together with their reported answers.
N#CC1=C(N)NC(=S)NC1c1ccc(-c2ccc(-c3nc4ccccc4s3)cc2)o1 (stereo not drawn); > 50 µM
C=CC[n+]1c(/C=C2\Sc3ccccc3N2C)sc(-c2ccccc2)c1-c1ccccc1; 0.478 µM

Below: the item to evaluate.
Task: Provide GI50, tested on EKVX NSCLC, for "COc1ccc(-n2cc(-c3ccc(Cl)cc3)[nH]c2=S)cc1Cl" .
Output: 42.8 µM

Reference for the values: PubChem BioAssay (NCI)
